test: Megestrol Acetate in plasma samples by GC/MS; type: in vivo; conditions: human, 6 mg, Sub 6, 6 mg dose, 2 h post dosing
MEASURED METRIC: concentration at 2 h (ng/mL)

1) CC(=O)O[C@]1(C(C)=O)CC[C@H]2[C@@H]3C=C(C)C4=CC(=O)CC[C@]4(C)[C@H]3CC[C@@]21C [megestrol acetate]; 32.1

* * *

assay: Megestrol Acetate in plasma samples by GC/MS; format: in vivo; settings: human, 1.5 mg, Sub 7, 1.5 mg dose, 1 h post dosing
MEASURED METRIC: concentration at 1 h (ng/mL)

1) CC(=O)O[C@]1(C(C)=O)CC[C@H]2[C@@H]3C=C(C)C4=CC(=O)CC[C@]4(C)[C@H]3CC[C@@]21C [megestrol acetate]; 7.82

* * *

experiment: Megestrol Acetate in plasma samples by GC/MS; assay type: in vivo; details: human, 1.5 mg, Sub 7, 1.5 mg dose, 48 h post dosing
MEASURED METRIC: concentration at 48 h

1. CC(=O)O[C@]1(C(C)=O)CC[C@H]2[C@@H]3C=C(C)C4=CC(=O)CC[C@]4(C)[C@H]3CC[C@@]21C [megestrol acetate]; 0.564 ng/mL

* * *

test: Megestrol Acetate in plasma samples by GC/MS; format: in vivo; settings: human, 1.5 mg, Sub 1, 1.5 mg dose, 24 h post dosing
MEASURED METRIC: concentration at 24 h (ng/mL)

1. CC(=O)O[C@]1(C(C)=O)CC[C@H]2[C@@H]3C=C(C)C4=CC(=O)CC[C@]4(C)[C@H]3CC[C@@]21C [megestrol acetate]; 0.399

* * *

assay: Megestrol Acetate in plasma samples by GC/MS; assay type: in vivo; details: human, 6 mg, Sub 8, 6 mg dose, 48 h post dosing
MEASURED METRIC: concentration at 48 h

1) CC(=O)O[C@]1(C(C)=O)CC[C@H]2[C@@H]3C=C(C)C4=CC(=O)CC[C@]4(C)[C@H]3CC[C@@]21C [megestrol acetate]; 0.796 ng/mL

* * *

assay: Megestrol Acetate in plasma samples by GC/MS; format: in vivo; conditions: human, 6 mg, Sub 2, 6 mg dose, 48 h post dosing
MEASURED METRIC: concentration at 48 h (ng/mL)

1) CC(=O)O[C@]1(C(C)=O)CC[C@H]2[C@@H]3C=C(C)C4=CC(=O)CC[C@]4(C)[C@H]3CC[C@@]21C [megestrol acetate]; 3.58

* * *

Test: Megestrol Acetate in plasma samples by GC/MS
Format: in vivo
Conditions: human, 1.5 mg, Sub 1, 1.5 mg dose, 1 h post dosing
Experimental: A total of 90 plasma samples were analyzed for their content of Megestrol Acetate by GC/MS. In this study megestrol acetate was utilized and medroxyprogesterone acetate was utilized as an internal standard. For each sample, 1 mL of human plasma was aliquoted and spiked with 25 μL of the internal standard working solution. […] The time measured represents the number of hours passed post dosing. […] During the study, 3 series of plasma calibration curves were measured (prevalidation run not considered).
MEASURED METRIC: concentration at 1 h

1. CC(=O)O[C@]1(C(C)=O)CC[C@H]2[C@@H]3C=C(C)C4=CC(=O)CC[C@]4(C)[C@H]3CC[C@@]21C [megestrol acetate]; 7.82 ng/mL

* * *

test: Megestrol Acetate in plasma samples by GC/MS; format: in vivo; details: human, 6 mg, Sub 10, 6 mg dose, 1 h post dosing
MEASURED METRIC: concentration at 1 h (ng/mL)

1) CC(=O)O[C@]1(C(C)=O)CC[C@H]2[C@@H]3C=C(C)C4=CC(=O)CC[C@]4(C)[C@H]3CC[C@@]21C [megestrol acetate]; 23.5

* * *

assay: Megestrol Acetate in plasma samples by GC/MS; type: in vivo; conditions: human, 6 mg, Sub 4, 6 mg dose, 36 h post dosing
MEASURED METRIC: concentration at 36 h (ng/mL)

1. CC(=O)O[C@]1(C(C)=O)CC[C@H]2[C@@H]3C=C(C)C4=CC(=O)CC[C@]4(C)[C@H]3CC[C@@]21C [megestrol acetate]; 3.58

* * *

assay: Megestrol Acetate in plasma samples by GC/MS; type: in vivo; settings: human, 1.5 mg, Sub 9, 1.5 mg dose, 36 h post dosing
MEASURED METRIC: concentration at 36 h (ng/mL)

1) CC(=O)O[C@]1(C(C)=O)CC[C@H]2[C@@H]3C=C(C)C4=CC(=O)CC[C@]4(C)[C@H]3CC[C@@]21C [megestrol acetate]; 1.3

* * *

test: Megestrol Acetate in plasma samples by GC/MS; assay type: in vivo; details: human, 1.5 mg, Sub 5, 1.5 mg dose, 48 h post dosing
MEASURED METRIC: concentration at 48 h (ng/mL)

1) CC(=O)O[C@]1(C(C)=O)CC[C@H]2[C@@H]3C=C(C)C4=CC(=O)CC[C@]4(C)[C@H]3CC[C@@]21C [megestrol acetate]; 0.267

* * *

assay: Megestrol Acetate in plasma samples by GC/MS; type: in vivo; conditions: human, 6 mg, Sub 2, 6 mg dose, 2 h post dosing
MEASURED METRIC: concentration at 2 h (ng/mL)

1. CC(=O)O[C@]1(C(C)=O)CC[C@H]2[C@@H]3C=C(C)C4=CC(=O)CC[C@]4(C)[C@H]3CC[C@@]21C [megestrol acetate]; 28.1

* * *

test: Megestrol Acetate in plasma samples by GC/MS; type: in vivo; conditions: human, 6 mg, Sub 10, 6 mg dose, 36 h post dosing
MEASURED METRIC: concentration at 36 h (ng/mL)

1) CC(=O)O[C@]1(C(C)=O)CC[C@H]2[C@@H]3C=C(C)C4=CC(=O)CC[C@]4(C)[C@H]3CC[C@@]21C [megestrol acetate]; 2.6

* * *

assay: Megestrol Acetate in plasma samples by GC/MS; assay type: in vivo; details: human, 1.5 mg, Sub 3, 1.5 mg dose, 8 h post dosing
MEASURED METRIC: concentration at 8 h (ng/mL)

1. CC(=O)O[C@]1(C(C)=O)CC[C@H]2[C@@H]3C=C(C)C4=CC(=O)CC[C@]4(C)[C@H]3CC[C@@]21C [megestrol acetate]; 2.66

* * *

assay: Megestrol Acetate in plasma samples by GC/MS; format: in vivo; settings: human, 1.5 mg, Sub 1, 1.5 mg dose, time 0 h (predose)
MEASURED METRIC: concentration at 0 h (ng/mL)

1. CC(=O)O[C@]1(C(C)=O)CC[C@H]2[C@@H]3C=C(C)C4=CC(=O)CC[C@]4(C)[C@H]3CC[C@@]21C [megestrol acetate]; 0.492

* * *

assay: Megestrol Acetate in plasma samples by GC/MS; assay type: in vivo; conditions: human, 6 mg, Sub 6, 6 mg dose, 8 h post dosing
MEASURED METRIC: concentration at 8 h (ng/mL)

1. CC(=O)O[C@]1(C(C)=O)CC[C@H]2[C@@H]3C=C(C)C4=CC(=O)CC[C@]4(C)[C@H]3CC[C@@]21C [megestrol acetate]; 7.61

* * *

assay: Megestrol Acetate in plasma samples by GC/MS; format: in vivo; conditions: human, 6 mg, Sub 2, 6 mg dose, 24 h post dosing
MEASURED METRIC: concentration at 24 h (ng/mL)

1) CC(=O)O[C@]1(C(C)=O)CC[C@H]2[C@@H]3C=C(C)C4=CC(=O)CC[C@]4(C)[C@H]3CC[C@@]21C [megestrol acetate]; 4.4

* * *

assay: Megestrol Acetate in plasma samples by GC/MS; type: in vivo; conditions: human, 1.5 mg, Sub 5, 1.5 mg dose, 36 h post dosing
MEASURED METRIC: concentration at 36 h (ng/mL)

1) CC(=O)O[C@]1(C(C)=O)CC[C@H]2[C@@H]3C=C(C)C4=CC(=O)CC[C@]4(C)[C@H]3CC[C@@]21C [megestrol acetate]; 0.409

* * *

test: Megestrol Acetate in plasma samples by GC/MS; format: in vivo; settings: human, 1.5 mg, Sub 3, 1.5 mg dose, 4 h post dosing
MEASURED METRIC: concentration at 4 h (ng/mL)

1. CC(=O)O[C@]1(C(C)=O)CC[C@H]2[C@@H]3C=C(C)C4=CC(=O)CC[C@]4(C)[C@H]3CC[C@@]21C [megestrol acetate]; 3.04

* * *

assay: Megestrol Acetate in plasma samples by GC/MS; assay type: in vivo; conditions: human, 1.5 mg, Sub 9, 1.5 mg dose, time 0 h (predose)
MEASURED METRIC: concentration at 0 h (ng/mL)

1) CC(=O)O[C@]1(C(C)=O)CC[C@H]2[C@@H]3C=C(C)C4=CC(=O)CC[C@]4(C)[C@H]3CC[C@@]21C [megestrol acetate]; 1.4

* * *

Assay: Megestrol Acetate in plasma samples by GC/MS
Format: in vivo
Details: human, 1.5 mg, Sub 5, 1.5 mg dose, 1 h post dosing
Procedure: A total of 90 plasma samples were analyzed for their content of Megestrol Acetate by GC/MS. In this study megestrol acetate was utilized and medroxyprogesterone acetate was utilized as an internal standard. For each sample, 1 mL of human plasma was aliquoted and spiked with 25 μL of the internal standard working solution. […] The time measured represents the number of hours passed post dosing. […] During the study, 3 series of plasma calibration curves were measured (prevalidation run not considered).
MEASURED METRIC: concentration at 1 h (ng/mL)

1) CC(=O)O[C@]1(C(C)=O)CC[C@H]2[C@@H]3C=C(C)C4=CC(=O)CC[C@]4(C)[C@H]3CC[C@@]21C [megestrol acetate]; 4.98
